This section lists IC50 readings for UniProt:Q9P8Q7.
Sequence (Q9P8Q7 whole entry): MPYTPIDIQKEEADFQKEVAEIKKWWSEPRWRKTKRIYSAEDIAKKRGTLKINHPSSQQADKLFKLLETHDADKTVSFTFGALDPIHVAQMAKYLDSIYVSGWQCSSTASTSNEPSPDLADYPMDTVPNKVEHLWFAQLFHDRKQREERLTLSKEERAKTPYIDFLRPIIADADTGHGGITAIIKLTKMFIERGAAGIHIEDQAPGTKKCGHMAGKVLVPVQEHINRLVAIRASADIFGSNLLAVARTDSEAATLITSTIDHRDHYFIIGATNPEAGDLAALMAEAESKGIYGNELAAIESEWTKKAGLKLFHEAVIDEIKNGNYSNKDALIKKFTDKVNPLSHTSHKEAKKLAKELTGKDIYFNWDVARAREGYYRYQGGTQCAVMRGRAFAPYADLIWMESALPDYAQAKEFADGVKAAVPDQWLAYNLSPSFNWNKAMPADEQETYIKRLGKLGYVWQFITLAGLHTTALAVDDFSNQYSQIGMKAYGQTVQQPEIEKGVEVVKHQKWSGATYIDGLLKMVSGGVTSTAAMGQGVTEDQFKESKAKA
Write it as a number; the unit µM goes unstated.

• NCCc1c[nH]c2ccc(O)cc12 = 301

Could you now consider this next compound?
Request: Jot down IC50 (UniProt:Q9P8Q7) of O=Cc1c[nH]c2ccc(O)cc12 .
Response: 247
